assay: logP (HCOOH) by HPLC, EEC-Directive 79/831, Annex V.A8; type: physicochemical; details: hplc acetonitrile/0.1% hcooh, gradient method
I'd be grateful if you could share measured chromatographic logP for these entries.
Quick one: just the number, no unit, thanks!

Problem: Can you look up the measured chromatographic logP of OCCNC(=S)N[C@@H]1CCc2ccccc21 [1-3] for me?
Result: 1.65

Problem: Likewise for OCCNC(=S)N[C@H]1CCc2ccccc21 [1-2] ?
Result: 1.65

Problem: Likewise for OCCN(CCO)C(=S)N[C@H]1CCc2ccccc21 [1-105] ?
Result: 1.64

Problem: Likewise for OCCNC(=S)NC1CCc2c(F)cccc21 (stereo not shown) [1-14] ?
Result: 1.74

Problem: Likewise for COCCNC(=S)NC1CCc2c(F)cccc21 (stereo not shown) [1-17] ?
Result: 2.21

Problem: Likewise for OCCNC(=S)NC1CCc2c(F)ccc(F)c21 (stereo not shown) [1-83] ?
Result: 1.68

Problem: Likewise for COCCNC(=S)NC1CCc2ccccc21 (stereo not shown) [1-4] ?
Result: 2.07

Problem: Likewise for OCCNC(=S)NC1CCOc2ccccc21 (stereo not shown) [3-1] ?
Result: 1.42

Problem: Likewise for CC(CO)NC(=S)N[C@H]1CCc2ccccc21 (stereo partly shown) [1-21] ?
Result: 1.78

Problem: Likewise for OCCNC(=S)N[C@H]1CCCc2ccccc21 [4-2] ?
Result: 1.79
